systemUnderTest: Homeobox protein Hox-A13 (Mus musculus) (UniProt Q62424)
Sequence (Q62424 whole entry, looked up): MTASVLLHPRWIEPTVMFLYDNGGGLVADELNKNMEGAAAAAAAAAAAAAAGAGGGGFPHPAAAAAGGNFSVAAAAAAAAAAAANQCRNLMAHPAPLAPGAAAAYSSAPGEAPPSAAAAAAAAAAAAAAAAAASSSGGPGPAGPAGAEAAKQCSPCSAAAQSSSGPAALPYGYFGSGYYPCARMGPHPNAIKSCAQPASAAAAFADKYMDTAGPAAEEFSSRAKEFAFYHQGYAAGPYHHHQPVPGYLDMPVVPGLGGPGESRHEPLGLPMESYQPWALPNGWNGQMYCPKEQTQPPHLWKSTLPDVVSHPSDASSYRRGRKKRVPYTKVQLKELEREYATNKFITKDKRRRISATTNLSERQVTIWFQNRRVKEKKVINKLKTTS
experimentDescription: inhibitors of HoxA13-DNA binding, primary screen, biochemical, fluorescence polarization, labeled oligonucleotide (AID 1185)
particulars: 15 min, called active from +8 up or from −8 down
The source made the active and inactive calls.
Give one outcome, nothing more. List: active, inactive

• O=C1OCC=C[C@H]2OC34C=CCN(c5ccc6ccccc6c5)C(=O)[C@H]3N(CCCO)C(=O)[C@@H]4[C@@H]12 (stereo partly drawn) = inactive

Entry O=c1cccc(C=Cc2ccccc2)o1 : call = ?
inactive

Entry COCCOC(=O)N1C(=O)[C@@]2(c3cc(C#CCNC(N)=O)ccc31)[C@H](c1ccc(O)cc1)N1[C@H](c3ccccc3)[C@H](c3ccccc3)OC(=O)[C@H]1[C@@H]2C(=O)NC[C@H](O)c1ccccc1 : call = ?
inactive

Entry CCC[C@@H]1C=C(C(=O)O)[C@H](c2ccc(C)cc2)N1S(=O)(=O)c1ccc(C)cc1 : call = ?
inactive

Entry O=C1O[C@@H](c2ccccc2)[C@@H](c2ccccc2)N2[C@@H](c3ccccc3OCCO)[C@]3(C(=O)Nc4ccc(C#CC5(O)CCCCCC5)cc43)[C@@H](C(=O)Nc3nc4ccccc4s3)[C@H]12 : call = ?
inactive

Entry CC(=O)C1=CCC(c2ccccc2)N(S(=O)(=O)c2ccc(C)cc2)C1 (stereo not drawn) : call = ?
inactive

Entry NC(=O)NCC#Cc1ccc2c(c1)[C@]1(C(=O)N2)[C@H](C(=O)N2CCCCCCC2)[C@H]2C(=O)O[C@H](c3ccccc3)[C@H](c3ccccc3)N2[C@@H]1c1ccc(OCCO)cc1 : call = ?
active
